Test system: T47D
Experiment: NCI tumour cell line growth inhibition, 48 h
Activity calls are given as the source filed them. Rule as the data show it: active = GI50 up to about 1.1 µM and inactive = higher.
Outcome codes: label 1 = active, label 0 = inactive

{"molecule": "O=c1cc(NNCc2ccccc2)[nH]c(=O)[nH]1", "group": "label 1"}
{"molecule": "Cc1cccc2c1Oc1cc(Cl)ccc1C2NC(=O)CCN1CCCCC1 (configuration not stated)", "group": "label 0"}
{"molecule": "CCOC(=O)C(=O)CC(=O)C1=C(c2ccccc2OC)CC(c2cccs2)=CC1=O", "group": "label 0"}
{"molecule": "CC(C)(C)OC(=O)N1C[C@H](CC(=O)OCc2ccccc2)C[C@H]1C(=O)OCC(Cl)(Cl)Cl", "group": "label 0"}
{"molecule": "Cc1ccc(OCCn2cc(Nc3ccccc3)c(=O)[nH]c2=O)cc1", "group": "label 0"}
{"molecule": "O=C(CC1C(=O)Nc2ccccc2[S+]1[O-])Nc1cccc(Cl)c1 (configuration not stated)", "group": "label 0"}
{"molecule": "COc1cc2oc(-c3ccc(O)cc3)cc(=O)c2c(OC)c1OC", "group": "label 0"}
{"molecule": "O=C1CSC(c2cccs2)N1c1nc2cc3sc(N4C(=O)CSC4c4cccs4)nc3cc2s1 (configuration not stated)", "group": "label 0"}
{"molecule": "CN(C)CCNC(=O)c1ccc(Cl)c2cc3ccccc3nc12", "group": "label 0"}
{"molecule": "CC(C)CC(N)C(=O)O (configuration not stated)", "group": "label 0"}
{"molecule": "CN(C)CCSS(=O)(=O)O", "group": "label 0"}
{"molecule": "COc1cc2c(c(OC)c1OC)C(=O)[C@H](Br)[C@H]2NC(=O)NCCCl", "group": "label 0"}

====

Test system: HL-60
Assay: NCI tumour cell line growth inhibition, 48 h
The source made the active and inactive calls. Rule as the data show it: active = GI50 up to about 1.1 µM and inactive = higher.

{"compound": "CCOC(=O)C1=C(C)N(C2OC(COC(C)=O)C(OC(C)=O)C(OC(C)=O)C2OC(C)=O)C(=O)NC1c1ccccc1 (configuration not stated)", "GI50": "> 100 µM (inactive)"}
{"compound": "COc1ccc(OC)c(/C=C/C(=O)C(C)(C)C)c1", "GI50": "14.7 µM (inactive)"}
{"compound": "CN(C)CCOc1ccc([N+](=O)[O-])c2cccnc12", "GI50": "> 100 µM (inactive)"}
{"compound": "C/C(=N/NC(=O)c1ccncc1)C(F)(F)F", "GI50": "> 100 µM (inactive)"}
{"compound": "O=c1cc(NNCc2ccccc2)[nH]c(=O)[nH]1", "GI50": "> 100 µM (inactive)"}
{"compound": "COc1ccc2c(c1)[n+]([O-])c(C(=O)C/C(=N/OCCCc1ccccc1)C(=O)NC13CC4CC(CC(C4)C1)C3)c(C)[n+]2[O-]", "GI50": "> 100 µM (inactive)"}
{"compound": "CCCN1C(=O)CC(C)N(Cc2ccccc2Cl)C1=S (configuration not stated)", "GI50": "37.4 µM (inactive)"}

====

Test system: EKVX
Experiment: NCI tumour cell line growth inhibition, 48 h
The source made the active and inactive calls. Cut-off read from the data, not from the text of the source: active = GI50 up to about 1.1 µM and inactive = higher.

{"compound": "Clc1ccc2c(c1)C1C(CO2)C(c2ccccc2)=NN1c1ccccc1 (stereo not drawn)", "targetUnderTest": "EKVX", "GI50": "11.8 µM (inactive)"}
{"compound": "CCOC(=O)COC1=Nc2cc(OC)c(OC)c3nc(Cl)cc(c23)C1=O", "targetUnderTest": "EKVX", "GI50": "0.716 µM (active)"}
{"compound": "Cc1ccc(F)c2[nH]c(-c3ccccc3)cc(=O)c12", "targetUnderTest": "EKVX", "GI50": "> 25.2 µM (inactive)"}
{"compound": "NC(Cc1ccccc1CP(=O)(O)O)C(=O)O (stereo not drawn)", "targetUnderTest": "EKVX", "GI50": "> 100 µM (inactive)"}
{"compound": "CC1(C)[C@H](O)CC[C@]2(C)C3=CC[C@@]4(C)[C@@H]5C[C@](C)(CO)CC[C@]5(C)CC[C@]4(C)C3=CC[C@@H]12", "targetUnderTest": "EKVX", "GI50": "> 100 µM (inactive)"}
{"compound": "CCCN(C(=O)c1c(Cl)nnc(Cl)c1C(=O)c1cc(Cl)nnc1Cl)c1cc(Cl)nnc1Cl", "targetUnderTest": "EKVX", "GI50": "12.7 µM (inactive)"}
{"compound": "O=C(N/N=C(COc1ccccc1)\\N=C\\c1ccncc1)c1ccncc1", "targetUnderTest": "EKVX", "GI50": "> 100 µM (inactive)"}
{"compound": "CCOP(=O)(OCC)C(Nc1ccc(F)cc1)c1cccc([N+](=O)[O-])c1 (stereo not drawn)", "targetUnderTest": "EKVX", "GI50": "90.4 µM (inactive)"}
{"compound": "Cc1nnc(N/N=C(/C(=O)C(C#N)c2ccc(Cl)cc2)C(C#N)c2ccc(Cl)cc2)n1N (stereo not drawn)", "targetUnderTest": "EKVX", "GI50": "> 10 µM (inactive)"}
{"compound": "O=C1[C@@H](O)[C@@H]2CCCC[C@@]23CCCN13", "targetUnderTest": "EKVX", "GI50": "> 100 µM (inactive)"}
{"compound": "CCOC(=O)c1nc2ccc(C(F)(F)F)cc2nc1NCc1ccc(F)cc1", "targetUnderTest": "EKVX", "GI50": "37.8 µM (inactive)"}
{"compound": "COC(=O)C(CCSc1ccccc1)C(=O)OC", "targetUnderTest": "EKVX", "GI50": "> 100 µM (inactive)"}
{"compound": "NC(=O)C(N)CC12CC3CC(CC(C3)C1)C2 (stereo not drawn)", "targetUnderTest": "EKVX", "GI50": "29.6 µM (inactive)"}

====

Tested on: HT-29
Assay: NCI tumour cell line growth inhibition, 48 h
Activity calls are given as the source filed them. No stated cut-off is given here; in the data, active = GI50 up to about 1.1 µM and inactive = higher.

{"compound": "N#CC(C(=O)c1cccnc1Cl)c1nc2cc(C(F)(F)F)ccc2s1 (configuration not stated)", "GI50": "28.3 µM (inactive)"}
{"compound": "O=C(Nc1ccc(Sc2ccc(/N=N/c3c(O)c(S(=O)(=O)O)cc4cc(S(=O)(=O)O)ccc34)cc2)cc1)c1ccc(/N=N/c2c(O)ccc3c(S(=O)(=O)O)cc(S(=O)(=O)O)cc23)cc1", "GI50": "42.1 µM (inactive)"}
{"compound": "CCOC(=O)C1(C(=O)OCC)OC(C)=NC1(C(=O)OC)C(=O)OC", "GI50": "> 100 µM (inactive)"}
{"compound": "COc1cc(O)c2c(O)c3c(=O)oc(C)cc3c(OC)c2c1 [PAEPALANTINE]", "GI50": "21.2 µM (inactive)"}
{"compound": "c1ccc2[nH]c(C3CCCCO3)nc2c1 (configuration not stated)", "GI50": "> 100 µM (inactive)"}
{"compound": "O=S(=O)(/N=C(\\NO)Nc1ccc(Cl)cc1)c1cccc2nsnc12", "GI50": "39.2 µM (inactive)"}
{"compound": "Cc1n[nH]c(=O)n1/N=C/c1ccc([N+](=O)[O-])o1", "GI50": "12.9 µM (inactive)"}

====

System: DU-145
Assay: NCI tumour cell line growth inhibition, 48 h
Activity calls are given as the source filed them. Rule as the data show it: active = GI50 up to about 1.1 µM and inactive = higher.
Recorded GI50, one value per entry.

{"compound": "Cc1ccc(/N=C2/C(c3ccccc3)=C(SC3=C(c4ccccc4)/C(=N/c4ccc(C)cc4)c4ccccc43)c3ccccc32)cc1", "GI50": "32.1 µM (inactive)"}
{"compound": "Clc1ccc(Cc2nc3cc(Cl)ccc3o2)cc1", "GI50": "60.8 µM (inactive)"}
{"compound": "Nc1ccc(S(=O)(=O)Nc2nnc(S(N)(=O)=O)s2)cc1", "GI50": "> 100 µM (inactive)"}
{"compound": "CC(=O)c1ccc(Oc2c3ccccc3nc3ccccc23)cc1", "GI50": "4.5 µM (inactive)"}
{"compound": "CCOC(=O)N1N(c2ccccc2)C(=O)C1(c1ccccc1)c1ccccc1", "GI50": "> 100 µM (inactive)"}
{"compound": "O=C1[C@@H](O)[C@@H]2CCCC[C@@]23CCCN13", "GI50": "> 100 µM (inactive)"}
{"compound": "COc1cc2c(c(OC)c1OC)C(=O)[C@H](Br)[C@H]2NC(=O)NCCCl", "GI50": "> 100 µM (inactive)"}
{"compound": "O=C1NC(=S)NC1C(Cc1ccccc1)c1ccco1 (centres undefined)", "GI50": "> 100 µM (inactive)"}
{"compound": "CCCNC(=O)c1cc(NC(=O)c2cc(NC(=O)/C=C/c3ccccc3)c(OC)c(OC)c2)c(OC)c(OC)c1", "GI50": "24.8 µM (inactive)"}
{"compound": "CC(C)CC(=O)CC(O)C(Cl)(Cl)Cl (centres undefined)", "GI50": "> 100 µM (inactive)"}
{"compound": "CC[C@]12C=CCN3CC[C@@]4(c5cc(Br)c(OC)cc5N(C)[C@H]4[C@@](O)(C(=O)N[C@@H](Cc4ccc(O)cc4)C(=O)OC)[C@@H]1O)[C@@H]32", "GI50": "55.1 µM (inactive)"}
{"compound": "CC(=O)O[C@H]1CC[C@@]2(C)C(=CC[C@@H]3[C@@H]2CC[C@]2(C)NC(=O)/C(=C\\c4ccccc4)C[C@@H]32)C1", "GI50": "15.9 µM (inactive)"}
{"compound": "c1ccc(NNC2=NCCN2)cc1", "GI50": "> 100 µM (inactive)"}
{"compound": "COc1ccc(/C=C/C(=O)N[C@@H]2C(=O)N3[C@@H]2SC(C)(C)[C@@H]3C(=O)O)cc1OC", "GI50": "> 100 µM (inactive)"}
{"compound": "O=[N+]([O-])c1ccc(N2N=C(c3ccc4ccccc4c3O)CC2c2ccc(Cl)cc2Cl)c([N+](=O)[O-])c1 (centres undefined)", "GI50": "55.5 µM (inactive)"}
{"compound": "C=C[C@@]1(C)CC(=O)[C@]2(O)[C@@]3(C)[C@@H](O)CCC(C)(C)[C@@H]3[C@H](O)[C@@H](OC(C)=O)[C@@]2(C)O1", "GI50": "> 100 µM (inactive)"}
{"compound": "C[C@@H](CCO)OC1OC(COC(=O)C(C)(C)C)C(OC(=O)C(C)(C)C)C(OC(=O)C(C)(C)C)C1OC(=O)C(C)(C)C (some centres undefined)", "GI50": "> 100 µM (inactive)"}
{"compound": "CNC(=O)c1ccccc1[S+]1c2cccc3cccc(c23)C(=O)N1C (centres undefined)", "GI50": "> 100 µM (inactive)"}
{"compound": "[O-][S+](c1ccccc1)c1ccc(/N=N/O)nc1 (centres undefined)", "GI50": "> 100 µM (inactive)"}
